The origin of these recorded values is paper PMC9030833.

tgt: hMAO-B (Homo sapiens, UniProt P27338)
Sequence (P27338 whole entry): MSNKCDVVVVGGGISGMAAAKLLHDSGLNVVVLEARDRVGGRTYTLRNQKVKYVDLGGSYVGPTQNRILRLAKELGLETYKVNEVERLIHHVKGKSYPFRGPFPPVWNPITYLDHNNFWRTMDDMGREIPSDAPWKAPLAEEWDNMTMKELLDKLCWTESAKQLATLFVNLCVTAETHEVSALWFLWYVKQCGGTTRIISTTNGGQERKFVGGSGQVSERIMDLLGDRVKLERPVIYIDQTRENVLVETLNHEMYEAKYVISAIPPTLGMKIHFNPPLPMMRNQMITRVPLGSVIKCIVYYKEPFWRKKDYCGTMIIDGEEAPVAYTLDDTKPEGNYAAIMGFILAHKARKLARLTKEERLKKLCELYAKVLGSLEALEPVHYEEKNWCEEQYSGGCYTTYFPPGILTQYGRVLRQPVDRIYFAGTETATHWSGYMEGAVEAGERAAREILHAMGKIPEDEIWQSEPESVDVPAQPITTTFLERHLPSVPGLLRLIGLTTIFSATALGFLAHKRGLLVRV
assayExplanation: In vitro hMAO-B inhibition, spectrophotometric Kynuramine deamination assay
conditionDetails: recombinant hMAO-B, Kynuramine substrate
pIC50: −log10 of the molar value.

>  <structureNotation>
CC(C)=CCC/C(C)=C/COc1c2ccoc2cc2oc(=O)ccc12

>  <pIC50>
6.54

$$$$
